# target system: D1 receptor (striatum of rat) (Rattus norvegicus, UniProt P18901)
# Construct: The striatum of rats were excised, homogenized
# Sequence (P18901 whole entry): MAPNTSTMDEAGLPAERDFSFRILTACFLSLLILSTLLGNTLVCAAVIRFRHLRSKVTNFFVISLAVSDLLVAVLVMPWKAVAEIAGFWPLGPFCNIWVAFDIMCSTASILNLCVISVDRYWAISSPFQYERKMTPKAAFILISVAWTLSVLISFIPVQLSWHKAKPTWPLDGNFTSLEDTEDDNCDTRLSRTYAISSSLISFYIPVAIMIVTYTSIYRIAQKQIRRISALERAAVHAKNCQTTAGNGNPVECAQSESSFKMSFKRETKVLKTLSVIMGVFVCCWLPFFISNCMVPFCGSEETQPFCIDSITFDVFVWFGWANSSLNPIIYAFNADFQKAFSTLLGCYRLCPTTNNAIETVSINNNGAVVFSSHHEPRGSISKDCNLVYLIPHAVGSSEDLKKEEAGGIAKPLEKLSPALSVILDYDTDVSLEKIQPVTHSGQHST
# assay: specific binding of D1 receptors in the striatum of rat
# measurement conditions: displacement of 3H-Sch23390 0.3 nM, rat striatum synaptosome fraction, 37 degree centigrade, 15 minutes
Where a name gives a salt, the structure may show the parent alone.
assay readout: pIC50
Give bare numbers, as −log10 of the molar value.

{"compound": "Oc1ccc([C@@H]2CNC[C@H]2c2ccccc2Cl)cc1O (relative stereo) [Compound C, hydrobromide]", "readout value": 6.22}
{"compound": "Oc1ccc([C@@H]2CNC[C@H]2Cc2cc(Cl)ccc2O)cc1O (relative stereo) [Compound H]", "readout value": 6.52}
{"compound": "Oc1ccc([C@@H]2CNC[C@H]2c2cccc(O)c2Cl)cc1O (relative stereo) [Compound D, hydrobromide]", "readout value": 6.42}
{"compound": "Cc1ccccc1[C@@H]1CNC[C@H]1c1ccc(O)c(O)c1 (relative stereo) [Compound B, hydrobromide]", "readout value": 6.22}
{"compound": "Oc1ccc([C@@H]2CNC[C@H]2Cc2cc(F)cc(F)c2O)cc1O (relative stereo) [Compound K]", "readout value": 6.89}
{"compound": "Cc1ccsc1[C@H]1CNC[C@H]1c1ccc(O)c(O)c1 (relative stereo) [Compound F, hydrobromide]", "readout value": 5.05}
{"compound": "Cc1ccsc1[C@@H]1CNC[C@H]1c1ccc(O)c(O)c1 (relative stereo) [Compound E, hydrobromide]", "readout value": 6.77}
{"compound": "Oc1ccc([C@@H]2CNC[C@H]2Cc2c(O)ccc(Cl)c2O)cc1O (relative stereo) [Compound J]", "readout value": 6.89}
{"compound": "Oc1ccc([C@@H]2CNC[C@H]2Cc2cccc(F)c2O)cc1O (relative stereo) [Compound L]", "readout value": 6.70}
{"compound": "Oc1ccc([C@@H]2CNC[C@H]2Cc2c(O)cccc2O)cc1O (relative stereo) [Compound I]", "readout value": 6.70}

For each listed entry, give its pIC50.
1. Oc1ccc([C@@H]2CNC[C@H]2c2ccccc2)cc1O (relative stereo) [Compound A, hydrobromide]
2. Oc1ccc([C@@H]2CNC[C@H]2c2cccc3ccsc23)cc1O (relative stereo) [Compound G, hydrobromide]

Completion:
5.32
6.40

---

Can you tell me pIC50 for the items I'm about to list?
# target system: D2 receptor (striatum of rat) (Rattus norvegicus)
# Construct: The striatum of rats were excised, homogenized
# Sequence (P61169 whole entry): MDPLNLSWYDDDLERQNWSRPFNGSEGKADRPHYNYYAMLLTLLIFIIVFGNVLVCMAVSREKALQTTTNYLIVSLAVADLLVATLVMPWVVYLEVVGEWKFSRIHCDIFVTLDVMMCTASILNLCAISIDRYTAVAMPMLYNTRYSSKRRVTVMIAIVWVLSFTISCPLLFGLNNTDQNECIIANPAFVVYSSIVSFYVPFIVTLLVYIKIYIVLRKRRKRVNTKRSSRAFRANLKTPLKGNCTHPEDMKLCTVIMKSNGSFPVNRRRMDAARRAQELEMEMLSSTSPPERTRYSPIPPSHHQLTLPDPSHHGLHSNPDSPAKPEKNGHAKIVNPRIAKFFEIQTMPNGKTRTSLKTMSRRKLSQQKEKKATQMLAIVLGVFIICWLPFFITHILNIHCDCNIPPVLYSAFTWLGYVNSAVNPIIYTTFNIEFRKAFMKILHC
# assay: specific binding of D2 receptors in the striatum of rat
# measurement conditions: displacement of 3H-Spiperone 0.2 nM, rat striatum synaptosome fraction, 37 degree centigrade, 15 minutes
Structures can show the parent of a compound that is named as a salt.
Answers are plain numbers, as −log10 of the molar value.

# annotated cases, reported pIC50 shown
{"compound": "Cc1ccccc1[C@@H]1CNC[C@H]1c1ccc(O)c(O)c1 (relative stereo) [Compound B, hydrobromide]", "pIC50": 5.00}
{"compound": "Oc1ccc([C@@H]2CNC[C@H]2Cc2c(O)ccc(Cl)c2O)cc1O (relative stereo)", "pIC50": 6.00}
{"compound": "Oc1ccc([C@@H]2CNC[C@H]2c2ccccc2Cl)cc1O (relative stereo) [Compound C, hydrobromide]", "pIC50": 5.15}

For each listed entry, give its pIC50.
1. Oc1ccc([C@@H]2CNC[C@H]2Cc2cccc(F)c2O)cc1O (relative stereo)
2. Oc1ccc([C@@H]2CNC[C@H]2Cc2c(O)cccc2O)cc1O (relative stereo)
3. Cc1ccsc1[C@@H]1CNC[C@H]1c1ccc(O)c(O)c1 (relative stereo) [Compound E, hydrobromide]
4. Cc1ccsc1[C@H]1CNC[C@H]1c1ccc(O)c(O)c1 (relative stereo) [Compound F, hydrobromide]

Completion:
1. 5.30
2. 7.15
3. 4.05
4. 4.30
